The origin of these recorded values is ChEMBL document CHEMBL5352443.

assay: Toxicity in BALB/c mouse implanted with mouse CT26 cells expressing high luciferase assessed as mouse survival rate at 0.5 mg/kg, IT administered intratumorally on day 1,3,5,7 and measured at 50 days; type: organism-based; settings: in vivo, route it(Intratumoral), time 50 day
measuredEndpoint: survival at 1200 h (%)
Provide the reading as a plain figure in %.

Ask: Given the compound Nc1ncnc2c1ncn2[C@@H]1O[C@@H]2COP(=O)(S)O[C@@H]3[C@H](O)[C@@H](COP(=O)(S)O[C@H]2[C@H]1O)O[C@H]3n1cnc2c(N)ncnc21 (stereo partly specified) , what is its reported survival at 1200 h?
Reply: 75

###

biological target: UniProtKB Q86WV6; test: Agonist activity at STING in human THP-1 reporter cells incubated for 4 hrs in presence of lipofectamine 2000 by QUANTI-Luc assay; format: cell-based
Sequence (Q86WV6 whole entry): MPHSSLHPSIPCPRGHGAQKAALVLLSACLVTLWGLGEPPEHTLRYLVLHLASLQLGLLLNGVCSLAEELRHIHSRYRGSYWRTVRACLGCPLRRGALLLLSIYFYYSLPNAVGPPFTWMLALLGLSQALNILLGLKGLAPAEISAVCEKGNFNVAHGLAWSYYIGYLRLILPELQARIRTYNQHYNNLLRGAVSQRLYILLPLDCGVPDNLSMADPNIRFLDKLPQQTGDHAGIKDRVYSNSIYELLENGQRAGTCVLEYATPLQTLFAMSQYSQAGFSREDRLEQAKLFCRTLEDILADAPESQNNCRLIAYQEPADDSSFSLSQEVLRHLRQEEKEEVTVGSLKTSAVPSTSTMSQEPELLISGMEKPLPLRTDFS
measuredEndpoint: pEC50
Notebook: values listed as pEC50 are -log10 of the concentration (mol/L).

Ask: Given the compound Nc1ncnc2c1ncn2[C@H]1C[C@@H]2OP(=O)(O)OC[C@H]3O[C@@H](n4cnc5c(N)ncnc54)C[C@@H]3OP(=O)(O)OC[C@H]2O1 , what is its reported pEC50?
Reply: 6.17
